- TEST_TARGET: T1, nonhuman primate CD36 (on HEK 293 cells) (cynomolgus monkey / rhesus macaque, UniProt P16671 2-472 (human entry))
- T1 construct: also called non-human primate CD36 (cynomolgus)
- T1 sequence (P16671 other isoform, or with tags, fused parts or gaps limits assumed): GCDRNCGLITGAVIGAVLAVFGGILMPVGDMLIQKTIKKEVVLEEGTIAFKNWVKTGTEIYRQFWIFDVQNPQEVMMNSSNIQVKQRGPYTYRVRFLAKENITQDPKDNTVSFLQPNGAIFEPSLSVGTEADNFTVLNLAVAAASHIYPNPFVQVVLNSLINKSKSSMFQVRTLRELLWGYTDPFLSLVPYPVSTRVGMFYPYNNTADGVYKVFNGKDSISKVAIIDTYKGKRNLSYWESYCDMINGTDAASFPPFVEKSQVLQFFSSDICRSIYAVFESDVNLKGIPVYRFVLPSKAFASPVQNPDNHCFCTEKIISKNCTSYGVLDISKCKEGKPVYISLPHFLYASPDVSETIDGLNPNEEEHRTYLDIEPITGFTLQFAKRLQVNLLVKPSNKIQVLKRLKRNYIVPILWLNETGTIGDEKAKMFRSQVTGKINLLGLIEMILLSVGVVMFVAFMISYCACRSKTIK
- ASSAY_PROCEDURE: FACS, HEK 293 cells transiently overexpressing CD36;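 also: antibody binding to transfected cells detected by flow cytometry with a fluorescent anti-human secondary antibody, EC50 from a four-parameter sigmoidal fit of mean fluorescence intensity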
Param label: returns y when EC50 < 4 nM, returns n otherwise, including exact equality.

* 7G04 (antibody, human IgG1, V domains shown, Chimeric: mouse variable regions on human IgG1 LALA (L234A/L235A); also called 07G04; 007G04) VH: QVQMKESGAELVRPGASVKLSCKALGYTFTDYEIQWVKQTPVHGLEWIGGIHPGSSGIVYNQKFKGKATLTADKSSSTAYMELSSLTSEDSAVYYCTRGGGYDGAWFAYWGQGSLVTVSA VL: ETTVTQSPASLSMAIGEKVTIRCITSTDIDDDMNWYQQKPGEPPKLLISEGNTLRPGVPSRFSSSGYGTDFVFTIENMLSEDVADYYCLQSDNLPFTFGSGTKLEIK | n
* 9G04 (antibody, human IgG1, V domains shown, Chimeric: mouse variable regions on human IgG1 LALA (L234A/L235A); also called 09G04; 009G04) VH: QVQLQQSGAELVRPGASVTLSCKASGYTFTDYEMHWVKQTPVHGLEWIGTVDPETGGTAFNQKFKDKASLTADKSSSTVYMELRSLTSEDSAVYYCSRGYGNYGAWFAYWGQGTLVTVSA VL: ETTVTQSPASLSVATGEKVTIRCITSTDIDDDMNWYQQKPGEPPKLLISEGNTLRPGVPSRFSSSGYGTDFVFTIENMLSEDVADYYCLQSDNLPFTFGSGTKLEIK | n
* 16G04 (antibody, human IgG1, V domains shown, Chimeric: mouse variable regions on human IgG1 LALA (L234A/L235A); also called 016G04) VH: EVQLQQSGPELVKPGASVKISCKTSGYTFTEYTMHWVKQSHGKSLEWIGGINPYNGGTAYNQKFKNKATLTVDISSNTAFMEFRSLTSEDSAVYYCASDYFYGDANPWFAYWGQGTLVTVSA VL: ETTVTQSPASLSMAIGEKVTIRCITSTDIDDDMNWYQQKPGEPPKLLISEGNTLRPGVPSRFSSSGYGTDFVFTIENMLSEDVADYYCLQSDNLPLTFGAGTKLELK | n
* 4G04 (antibody, human IgG1, V domains shown, Chimeric: mouse variable regions on human IgG1 LALA (L234A/L235A); also called 04G04; 004G04) VH: QVQLQQPGSELRSPGSSVKLSCKDFDSEVFPIAYMTWVRQKPGHGFEWIGDILPSIGGTIYGEKFEDKATLDADTVSNTAYLELNSLTSEDSAIYYCARDYYGSSYGYFDVWGAGTAVTVSS VL: DIVLTQSQKFMSTSVGDRVSVTCKASQNVGTNVAWYQQKPGQSPKALIYSASYRYSGVPDRFTGSGSGTDFTLTISNVQSEDLAEYFCQQYNSYPYTFGGGTKLEIK | n
* 10G04 (antibody, human IgG1, V domains shown, Chimeric: mouse variable regions on human IgG1 LALA (L234A/L235A); also called 010G04) VH: DVQLQESGPELVKPGASVKISCKASGYTFTDYNMHWVKQSHGKSLEWIGYIYPYNGGTGYNQKFKSKATLTVDNSSSTAYMELRSLTSEDSAVYYCARDGGYDVYFDYWGQGTTLTVSS VL: DVVMTQTPLSLPVSLGDQASISCRSSQSLVHSNGNTYLHWYLQKPGQSPKLLIYKVSNRFSGVPDRFSGSGSGTDFTLKISRVEAEDLGVYYCFQGSHVPWTFGGGTKLEIK | y
* 29G04 (antibody, human IgG1, V domains shown, Chimeric: mouse variable regions on human IgG1 LALA (L234A/L235A); also called 029G04) VH: QVQLQQSGTELVKPGASVKLSCKASGYTFTSYWMHWVKQRPGQGLEWIGEIDPSDSHTNYNQKFKGKATLTVDKSSSTAYMQLSSLTSEDSAVYYCAPIYYGLDNWGQGTTLTVSS VL: DIVLTQSQKFMSTSVGDRVSVTCKASQNVGTNVAWYQQKPGQSPKALIYSASYRYSGVPDRFTGSGSGTDFTLTISNVQSEDLAEYFCQQYNSYPLTFGAGTKLELK | y

Cited source for all entries: patent US20250206836A1
